# Procedure Details: Pharmacokinetic experiment on SD rats (iv and intragastric)
# Assay type: in vivo
# Experimental Parameters: Sprague-Dawley, rat, plasma, po, ig 10.00 mg/kg vs iv 1.00 mg/kg, read-out: Oral bioavailability Fobs
Readout Name: bioavailability
Phrase the answer as number then unit, nothing more needed.

{"Compound": "CN(C)c1cc2nn([C@H]3CC[C@H](CN4C[C@@H](F)[C@H](n5cc6cc(C7CCC(=O)NC7=O)c(F)cc6n5)C4)CC3)cc2cc1NC(=O)c1cnn2cccnc12 (stereo partly drawn)", "bioavailability": "63.7%"}
{"Compound": "CN(C)c1cc2nn([C@H]3CC[C@H](CN4C[C@H](F)[C@@H](n5cc6cc(C7CCC(=O)NC7=O)c(F)cc6n5)C4)CC3)cc2cc1NC(=O)c1cnn2cccnc12 (stereo partly drawn)", "bioavailability": "38.8%"}
{"Compound": "CN(C)c1cc2nn([C@H]3CC[C@H](CN4C[C@@H](n5cc6cc(C7CCC(=O)NC7=O)c(F)cc6n5)[C@@H](F)C4)CC3)cc2cc1NC(=O)c1cnn2cccnc12 (stereo partly drawn)", "bioavailability": "35.2%"}
{"Compound": "CN(C)c1cc2nn([C@H]3CC[C@H](CN4C[C@@H](F)[C@H](n5cc6cc(C7CCC(=O)NC7=O)ccc6n5)C4)CC3)cc2cc1NC(=O)c1cnn2cccnc12 (stereo partly drawn)", "bioavailability": "54.2%"}

List the reported bioavailability of each compound below.
1. CN(C)c1cc2nn([C@H]3CC[C@H](CN4C[C@@H](F)[C@@H](n5cc6cc(C7CCC(=O)NC7=O)c(F)cc6n5)C4)CC3)cc2cc1NC(=O)c1cnn2cccnc12 (stereo partly drawn)
2. CN(C)c1cc2nn([C@H]3CC[C@H](CN4CCC(n5cc6c(F)cc(N7CCC(=O)NC7=O)cc6n5)CC4)CC3)cc2cc1NC(=O)c1cnn2cccnc12

["29.9%", "24.5%"]
